# tested target: SIK1 (Homo sapiens, UniProt P57059)
# Construct: purchased Carna Biosciences 02-131
# Sequence (P57059 whole entry): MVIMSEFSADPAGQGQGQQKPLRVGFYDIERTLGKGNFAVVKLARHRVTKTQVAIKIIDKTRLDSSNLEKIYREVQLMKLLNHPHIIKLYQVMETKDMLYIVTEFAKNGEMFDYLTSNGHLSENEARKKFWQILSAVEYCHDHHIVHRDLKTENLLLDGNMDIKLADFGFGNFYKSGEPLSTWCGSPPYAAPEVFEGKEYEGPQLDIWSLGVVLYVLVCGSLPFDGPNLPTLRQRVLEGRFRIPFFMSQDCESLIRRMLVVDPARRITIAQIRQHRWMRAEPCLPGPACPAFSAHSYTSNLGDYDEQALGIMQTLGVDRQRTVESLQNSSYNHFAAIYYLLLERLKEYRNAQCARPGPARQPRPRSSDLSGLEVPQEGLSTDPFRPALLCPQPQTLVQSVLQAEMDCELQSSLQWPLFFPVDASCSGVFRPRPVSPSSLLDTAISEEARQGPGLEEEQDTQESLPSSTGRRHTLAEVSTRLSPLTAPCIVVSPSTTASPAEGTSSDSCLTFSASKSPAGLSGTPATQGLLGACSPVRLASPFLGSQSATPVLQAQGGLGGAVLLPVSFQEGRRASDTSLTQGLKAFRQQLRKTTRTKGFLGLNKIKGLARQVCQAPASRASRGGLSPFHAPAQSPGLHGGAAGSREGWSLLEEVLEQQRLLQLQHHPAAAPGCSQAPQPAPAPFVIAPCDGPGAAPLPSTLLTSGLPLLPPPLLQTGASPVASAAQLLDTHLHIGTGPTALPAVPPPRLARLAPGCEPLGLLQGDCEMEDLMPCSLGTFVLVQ
# procedure summary: biochemical
# conditions: 33P radioactive SIK kinase assay, AMARA peptide, 10 μM ATP; read-out: SIK1 IC50
# Protocol: The principle of the ^33P radioactive kinase assay consists in measuring the incorporated ^33P into the substrate AMARA peptide when phosphorylated by SIK1, SIK2 or SIK3 using [^33P]-g-ATP, which correlates with kinase activity. […] After harvesting the kinase reactions, the filter plates are washed 6 times with phosphoric acid (75 mM). […] The top of the plates are sealed with TopSeal-A. Read-out is performed with a TopCount instrument (PerkinElmer Inc.).
Quick reference for IC50 among some molecules

Consider the reported IC50 for these molecules:
smiles record: COc1cc(-c2cnc3cc(-c4cnn(CC(=O)OCC5CCC5)c4)ccn23)cc(OC)c1C(=O)NCC(F)(F)F
meas value: 0.01 to 10 nM
//
smiles record: CCOc1cncc(-c2ccn3c(-c4cc(OC)c(C(=O)NCC(F)(F)F)c(OC)c4)cnc3c2)c1
meas value: 10 to 100 nM
//
smiles record: COc1cc(-c2cnc3cc(-c4cnn(C)c4)ccn23)cc(OC)c1C(=O)NCC#N
meas value: 0.01 to 10 nM
//
smiles record: COc1cc(-n2cnc3cc(-c4cnn(C)c4)ccc32)cc(OC)c1C(=O)NC(C)C
meas value: 10 to 100 nM
//
smiles record: COc1cc(-n2cnc3cc(-c4nccn4C)ccc32)cc(OC)c1C(=O)NCC(F)(F)F
meas value: > 500 nM
//
smiles record: COc1cc(-c2cnc3cc(-c4cnn(C)c4)ccn23)cc(OC)c1C(=O)NCC(F)F
meas value: 0.01 to 10 nM
//
smiles record: CCn1cc(-c2cnc3c(-c4cc(OC)c(C(=O)NCC(F)(F)F)c(OC)c4)cnn3c2)cn1
meas value: 10 to 100 nM

Turning now to a further record.
-- ask I am curious: what IC50 value has been reported for "COc1cc(-n2cnc3cc(-c4conc4C)ccc32)cc(OC)c1C(=O)NCC(F)(F)F" ?
-- reply 100 to 500 nM
